molecular target: Topoisomerase II; assay: Inhibition of Topoisomerase II activity (DNA relaxation assay / DNA cleavage assay with supercoiled pBR322 DNA); assay type: biochemical; conditions: Topo II, 30 minutes at 37°C, table does not say which of the two assays
Recorded measurements of IC50, one per entry
Only the number, expressed in µg/mL, is required.

COc1cc(NC(=O)OCc2cc(N)cc(Nc3c4ccccc4nc4ccccc34)c2)cc(OC)c1OC | 5
Nc1cc(COC(=O)Nc2cccc(Cl)c2)cc(Nc2c3ccccc3nc3ccccc23)c1 | 1
COc1cc(NC(=O)OCc2cccc(Nc3c4ccccc4nc4ccccc34)c2)cc(OC)c1 | 3
CCCC=Nc1cc(CO)cc(Nc2c3ccccc3nc3ccccc23)c1 | 5
COc1cccc(NC(=O)OCc2cccc(Nc3c4ccccc4nc4ccccc34)c2)c1 | 3
N[C@@H](Cc1ccccc1)C(=O)Nc1cc(CO)cc(Nc2c3ccccc3nc3ccccc23)c1 | 3
Cc1cc(C)cc(NC(=O)OCc2cc(N)cc(Nc3c4ccccc4nc4ccccc34)c2)c1 | 3
Nc1cc(COC(=O)Nc2ccccc2)cc(Nc2c3ccccc3nc3ccccc23)c1 | 1
C[C@H](N)C(=O)Nc1cc(CO)cc(Nc2c3ccccc3nc3ccccc23)c1 | 0.5

// moving on: another record for IC50
Query: Could you tell me which IC50 is on file for `COc1cccc(NC(=O)OCc2cc(N)cc(Nc3c4ccccc4nc4ccccc34)c2)c1` ?
Reply: 3

Hello, the source for this data is patent EP1380574B1, in case you need it.
